Give GI50 for every item shown.
Test system: MDA-N
assay.procedure: NCI tumour cell line growth inhibition, 48 h
Calls of active or inactive are those of the source. No stated cut-off is given here; in the data, active = GI50 up to about 1.1 µM and inactive = higher.

Enquiry: Return reported GI50; argument: CCOC(=O)c1c(NS(=O)(=O)c2ccccc2)sc2c1CCCC2
Return: > 100 µM (inactive)

Enquiry: Return reported GI50; argument: CCOC(=O)c1nc2cc(C(F)(F)F)ccc2nc1Nc1cc(OC)c(OC)c(OC)c1
Return: > 100 µM (inactive)

Enquiry: Return reported GI50; argument: COc1ccc(/C=C/c2ccnc3ccccc23)cc1
Return: 16.6 µM (inactive)

Enquiry: Return reported GI50; argument: O=C(Nc1ccccc1)c1cc2c(cc1Cl)Sc1nccn1S2(=O)=O
Return: 23.5 µM (inactive)

Enquiry: Return reported GI50; argument: CN(/N=C/c1ccccc1O)c1ccc2ccccc2n1
Return: 52.2 µM (inactive)

Enquiry: Return reported GI50; argument: COc1ccccc1/[N+]([O-])=C/c1ccccc1OC(=S)S
Return: 17.7 µM (inactive)

Enquiry: Return reported GI50; argument: Cc1cn(C(CO)OC(CO)CN(O)C2C3CC4CC(C3)CC2C4)c(=O)[nH]c1=O (configuration not stated)
Return: > 100 µM (inactive)

Enquiry: Return reported GI50; argument: COC(=O)c1cc(-c2ccc3ccccc3c2)nc(O)c1C#N
Return: > 100 µM (inactive)

Enquiry: Return reported GI50; argument: CCCC1(N)CC(OC)OC(C)C1O (configuration not stated)
Return: > 100 µM (inactive)

Enquiry: Return reported GI50; argument: CC(=O)N1N=C(c2ccc3ccccc3c2O)CC1c1cccs1 (configuration not stated)
Return: 20.2 µM (inactive)

Enquiry: Return reported GI50; argument: O=c1[nH]c(=O)n(C2CC(O)C(CO)O2)cc1OCCc1ccccc1 (configuration not stated)
Return: > 100 µM (inactive)

Enquiry: Return reported GI50; argument: O=c1c(C(c2ccccn2)c2c(O)oc3cc(O)ccc3c2=O)c(O)oc2cc(O)ccc12
Return: > 100 µM (inactive)

Enquiry: Return reported GI50; argument: CC1=NC(C)(COC(=O)C2(C)NC(C)(CO)CO2)COC1=O (configuration not stated)
Return: > 100 µM (inactive)

Enquiry: Return reported GI50; argument: COc1ccc2[nH]c(C(=O)N3CC(CCl)c4ccc([N+](=O)[O-])cc43)cc2c1 (configuration not stated)
Return: > 100 µM (inactive)

Enquiry: Return reported GI50; argument: S=C(N/N=C\c1ccccn1)N(Cc1ccccn1)Cc1ccccn1
Return: 7.55 µM (inactive)

Enquiry: Return reported GI50; argument: Cc1ccc2nc(NC(=O)C(=O)C3C(=O)NC(=S)NC3=O)sc2c1
Return: > 100 µM (inactive)

Enquiry: Return reported GI50; argument: O=P(O)(O)CN1CCNCCN(CP(=O)(O)O)CCNCC1
Return: 13.5 µM (inactive)

Enquiry: Return reported GI50; argument: OC[C@@H](O)[C@H]1NC[C@@H](O)[C@H]1O
Return: > 100 µM (inactive)

Enquiry: Return reported GI50; argument: O=C(O)c1ccc(N2C=[N+]3C(=Nc4ccccc43)C2)cc1
Return: > 100 µM (inactive)

Enquiry: Return reported GI50; argument: Cc1ccc(C(=O)/C=C2/Nc3ccc([N+](=O)[O-])cc3N/C2=C/C(=O)c2ccc(C)cc2)cc1
Return: > 100 µM (inactive)

Enquiry: Return reported GI50; argument: COC(=O)CN1Cc2cc(C)cc(c2O)CN(CC(=O)OC)Cc2cc(C)cc(c2O)CN(CC(=O)OC)Cc2cc(C)cc(c2O)CN(CC(=O)OC)Cc2cc(C)cc(c2O)C1
Return: > 50 µM (inactive)

Enquiry: Return reported GI50; argument: c1ccc2c(c1)-c1ccccc1C2NC1=NCCO1
Return: 11.8 µM (inactive)

Enquiry: Return reported GI50; argument: CCOC(=O)C1(C)CCc2sc(N)c(C#N)c21 (configuration not stated)
Return: > 100 µM (inactive)

Enquiry: Return reported GI50; argument: ClC(Cl)=C1C(=C(Cl)Cl)C(Cl)(Cl)C1(Cl)Cl
Return: 1.37 µM (inactive)

Enquiry: Return reported GI50; argument: CO/C(N)=C(C#N)/N=C/c1ccc2ccccc2c1
Return: 8.41 µM (inactive)

Enquiry: Return reported GI50; argument: O=C1C=CC(=O)C1(Br)Br
Return: 11.5 µM (inactive)

Enquiry: Return reported GI50; argument: COc1cc(S(=O)(=O)Nc2ccc(-c3csc(N4C(=O)CSC4c4ccccc4O)n3)cc2)ccc1Cl (configuration not stated)
Return: 32.9 µM (inactive)

Enquiry: Return reported GI50; argument: CCCCCCCCCCCCCCCC1(OC)C[N+](C)(C)CCO1 (configuration not stated)
Return: 2.05 µM (inactive)

Enquiry: Return reported GI50; argument: COc1ccc2c(c1)CN([C@@H](C)[C@H]1CC[C@H]3[C@@H]4CC[C@H]5C[C@@H](O)CC[C@]5(C)[C@H]4CC[C@]13C)CO2
Return: 1.7 µM (inactive)

Enquiry: Return reported GI50; argument: O=C(CCc1ccc(O)c(O)c1)NCCc1cc(OCc2ccccc2)cc(OCc2ccccc2)c1
Return: 11 µM (inactive)

Enquiry: Return reported GI50; argument: COc1cc(COC(=O)N2CSCC2C(=O)O)c([N+](=O)[O-])cc1OC (configuration not stated)
Return: > 100 µM (inactive)

Enquiry: Return reported GI50; argument: CSc1c(C#N)c(S)[nH]c(=O)c1C#N
Return: 24.4 µM (inactive)

Enquiry: Return reported GI50; argument: CC(C)Oc1c(C2(c3ccccc3)SCCCS2)c(=O)c1=O
Return: > 100 µM (inactive)

Enquiry: Return reported GI50; argument: O=S(=O)(O)c1cc(S(=O)(=O)O)c2cc(/N=N/c3c(O)ccc4ccccc34)ccc2c1
Return: > 100 µM (inactive)

Enquiry: Return reported GI50; argument: CCOC(=O)NN(C(=O)OCC)C(C(=O)c1ccccc1)N(NC(=O)OCC)C(=O)OCC
Return: > 100 µM (inactive)

Enquiry: Return reported GI50; argument: CC12CC(C#N)(C#N)C(C#N)(CO1)C(=N)O2 (configuration not stated)
Return: > 100 µM (inactive)

Enquiry: Return reported GI50; argument: N#Cc1cnn2c1n[n+]([O-])c1ccc(Cl)cc12
Return: 8.65 µM (inactive)

Enquiry: Return reported GI50; argument: CC(CCC(=O)O)[C@H]1CCC2[C@H]3C(CC(=O)[C@@]21C)[C@@]1(C)CCC(O)C[C@H]1C[C@@H]3O (some centres not stated)
Return: > 100 µM (inactive)

Enquiry: Return reported GI50; argument: COC(=O)c1c(C(=O)OC)c(C(c2ccccc2)c2ccccc2)n(-c2ccccc2)c1Cl
Return: > 10 µM (inactive)

Enquiry: Return reported GI50; argument: COc1ccc(/C=C(\Cl)c2ccc(OC)c(OC)c2)cc1OC
Return: > 100 µM (inactive)

Enquiry: Return reported GI50; argument: COc1ccc(-c2cc(=O)c3c(O)cc(O)cc3o2)cc1OC
Return: > 100 µM (inactive)

Enquiry: Return reported GI50; argument: CC(C)(C)[Si](C)(C)OC[C@H](/C=C\CCCC(=O)O)NC1(c2ccccc2)c2ccccc2-c2ccccc21
Return: 20.6 µM (inactive)
